Compiled notes: published IC50 values involving Histone deacetylase 1 (Homo sapiens, UniProt Q13547).

Reference set (3 entries):
# structure, reported
measured = [
    ("CC(C)N1CC2(CN(C(=S)N(Cc3ccc(-c4nnc(C(F)F)o4)cc3F)c3ccc(F)cc3)C2)C1", "> 10 µM"),
    ("Fc1cccc(N(Cc2ccc(-c3nnc(C(F)F)o3)cc2F)C(=S)N2CC3(C2)CN(C2COC2)C3)c1", "> 10 µM"),
    ("CCN(Cc1ccc(C(=O)NO)cc1)C(=O)c1cc(C(C)C)c(O)cc1O", "5.23 µM"),
]

Dear colleague, could you please provide IC50 for the compounds listed below?
1. O=S1(=O)CCN(C(=S)N(Cc2ccc(-c3nnc(C(F)F)o3)cn2)c2ccccc2)CC1
2. CC(C)c1cc(C(=O)N(Cc2ccc(C(=O)NO)cc2)c2ccc(F)cc2)c(O)cc1O
3. CCCNNC(=O)CCCCCCNC(=O)NCc1cccnc1
4. CN1CC2(C1)CN(C(=S)N(Cc1ccc(-c3nnc(C(F)F)o3)cc1F)c1cccc(F)c1)C2

["> 10 µM", "1.69 µM", "0.444 µM", "> 10 µM"]

Dear colleague, could you please provide IC50 for the compounds listed below?
1. COc1ncc(-c2nc(N3CCOCC3)nc3c(OCCCCCCC(=O)NO)cc(F)cc23)cc1NS(C)(=O)=O
2. Fc1cc(-c2nnc(C(F)F)o2)ccc1CN(C(=S)N1CC2(C1)CN(C1COC1)C2)c1ccc(Cl)c(Cl)c1
3. Fc1ccc(N(Cc2ccc(-c3nnc(C(F)F)o3)cc2)C(=S)N2CC3(C2)CN(C2COC2)C3)cc1F
4. CN1CC2(C1)CN(C(=S)N(Cc1ccc(-c3nnc(C(F)F)o3)cc1F)c1ccc(F)cc1F)C2
5. CC(C)c1cc(C(=O)N(Cc2ccc(C(=O)NO)cc2)c2ccc(O)cc2)c(O)cc1O
6. CCCNNC(=O)c1ccc(NC(=O)CCCCCCCn2cc(-c3cccnc3)nn2)cc1
7. CN1C[C@@H]2C[C@H]1CN2C(=S)N(Cc1ccc(-c2nnc(C(F)F)o2)cc1F)c1ccc(F)cc1
8. Fc1ccc(N(Cc2ccc(-c3nnc(C(F)F)o3)cc2F)C(=S)N2CCC3(CC2)CN(C2COC2)C3)cc1F

≤ 0.01 µM
> 10 µM
> 10 µM
> 10 µM
0.961 µM
0.018 µM
> 10 µM
> 10 µM

Per the record, "CC(C)c1cc(C(=O)N(Cc2ccc(C(=O)NO)cc2)c2ccc(N3CCCCC3)cc2)c(O)cc1O" has IC50 of 1.23 µM
